# protocol_description: Solubility of ruxolitinib free base or 1:1 phosphate salt in potential solvents (HPLC)
# Format: physicochemical
# assay_conditions: 0.1 M citric buffer, pH 6, aqueous buffer, thermodynamic from solid, pH 6, citric buffer, 0.1M
parameter: solubility at 24 h (µg/mL)
Number in µg/mL, nothing else.

Challenge: Endpoint output: solubility at 24 h of N#CC[C@H](C1CCCC1)n1cc(-c2ncnc3[nH]ccc23)cn1 [ruxolitinib] . Value?
Response given: 150

---

# protocol_description: Solubility of ruxolitinib free base or 1:1 phosphate salt in potential solvents (HPLC)
# Type: physicochemical
# assay_conditions: mineral oil, oil or lipid, thermodynamic from solid
parameter: solubility at 24 h

Challenge: Endpoint output: solubility at 24 h of N#CC[C@H](C1CCCC1)n1cc(-c2ncnc3[nH]ccc23)cn1 [ruxolitinib phosphate] . Value?
Response given: < 100 µg/mL
